The reported numbers originate from patent US20240262815A1.

Tested on: SK-BR-3 cancer cells
EXPERIMENT_SUMMARY: Inhibitory activity against proliferation of SK-BR-3 cancer cells (CellTiter-Glo)
Format: cell-based
RUN_PARAMETERS: Homo sapiens, SK-BR-3, 120 h, ErbB2-overexpressing SK-BR-3 cells, 120 hours after treatment
Each entry below lists one item and its recorded GI50 value.
EXPERIMENTAL_ENDPOINT: GI50

1. C=CC(=O)Nc1cc(Nc2cc(N3OCCC3c3cccc(-c4ccc(C)s4)c3)ncn2)c(OC)cc1N1CCN(C)CC1 (stereo not drawn)
50 to 500 nM
2. C=CC(=O)Nc1cc(Nc2cc(N3OCC[C@@H]3c3cccc(-c4cc(F)cc(C(F)(F)F)c4)c3)ncn2)c(OC)cc1N1CCN(C)CC1
50 to 500 nM
3. C=CC(=O)Nc1cc(Nc2cc(N3OCC[C@@H]3c3cc(F)cc(OCc4ccccn4)c3)ncn2)c(OC)cc1N(C)CCN(C)C
< 50 nM
4. C=CC(=O)Nc1cc(Nc2cc(N3OCC[C@@H]3c3cccc(C#CC(C)(C)O)c3)ncn2)c(OC)cc1N(C)CCN(C)C
< 50 nM
5. C=CC(=O)Nc1cc(Nc2cc(N3OCC[C@@H]3c3ccc(F)c(Oc4cccc(F)c4)c3)ncn2)c(OC)cc1N1CCC(N2CCN(C3CC3)CC2)CC1
< 50 nM
6. C=CC(=O)Nc1cc(Nc2cc(N3OCC[C@@H]3c3cccc(-c4cccc(C(F)(F)F)c4F)c3)ncn2)c(OC)cc1N(C)CCN(C)C
< 50 nM
7. C=CC(=O)Nc1cc(Nc2cc(N3OCC[C@@H]3c3cccc(-c4ccccc4)c3)ncn2)c(OC)cc1N1CCN(CC)CC1
< 50 nM
8. C=CC(=O)Nc1cc(Nc2cc(N3OCC[C@@H]3c3cccc(-c4cccc(F)c4)c3)ncn2)c(OC)cc1N1CCS(=O)(=O)CC1
< 50 nM
9. C=CC(=O)Nc1cc(Nc2cc(N3OCCC3c3cccc(-c4cccc(C(F)(F)F)c4)c3)ncn2)c(OC)cc1N(C)CCN(C)C (stereo not drawn)
< 50 nM
10. C=CC(=O)Nc1cc(Nc2cc(N3OCCC3c3ccc(F)c(OCc4cccc(F)c4)c3)ncn2)c(OC)cc1N1CCN(C)CC1 (stereo not drawn)
< 50 nM
11. C=CC(=O)Nc1cc(Nc2cc(N3OCC[C@@H]3c3cccc(OCc4cccc(C)n4)c3)ncn2)c(OC)cc1N1CCC(N2CCN(C3CC3)CC2)CC1
50 to 500 nM
12. C=CC(=O)Nc1cc(Nc2cc(N3OCC[C@@H]3c3cccc(-c4cc(F)cc(F)c4)c3)ncn2)c(OC)cc1N1CCC(N2CCN(C3CC3)CC2)CC1
< 50 nM

###

Property: GI50; scope: individual molecules
System: SK-BR-3 cancer cells
EXPERIMENT_SUMMARY: Inhibitory activity against proliferation of SK-BR-3 cancer cells (CellTiter-Glo)
Type: cell-based
RUN_PARAMETERS: Homo sapiens, SK-BR-3, 120 h, ErbB2-overexpressing SK-BR-3 cells, 120 hours after treatment
EXPERIMENTAL_ENDPOINT: GI50

1. C=CC(=O)Nc1cc(Nc2cc(N3OCCC3c3cccc(-c4cccc(F)c4)c3)ncn2)c(OC)cc1N(C)CCN(C)C (centres unmarked)
< 50 nM
2. C=CC(=O)Nc1cc(Nc2cc(N3OCCC3c3ccc(Cl)c(OCc4cccc(F)c4)c3)ncn2)c(OC)cc1N1CCN(C)CC1 (centres unmarked)
50 to 500 nM
3. C=CC(=O)Nc1cc(Nc2cc(N3OCC[C@@H]3c3cccc(Oc4cc(F)cc(F)c4)c3)ncn2)c(OC)cc1N(C)CCN(C)C
< 50 nM
4. C=CC(=O)Nc1cc(Nc2cc(N3OCC[C@@H]3c3cc(F)cc(-c4ccsc4)c3)ncn2)c(OC)cc1N1CCN(C)CC1
< 50 nM
5. C=CC(=O)Nc1cc(Nc2cc(N3OCC[C@@H]3c3cccc(OCc4cccc(C)n4)c3)ncn2)c(OC)cc1N1CCN(C)CC1
50 to 500 nM
6. C=CC(=O)Nc1cc(Nc2cc(N3OCCC3c3cccc(C#CC(C)(C)C)c3)ncn2)c(OC)cc1N1CCN(C)CC1 (centres unmarked)
50 to 500 nM
7. C=CC(=O)Nc1cc(Nc2cc(N3OCC[C@@H]3c3cccc(-c4cc(F)cc(F)c4)c3)ncn2)c(OC)cc1N1CCO[C@H](C)C1
< 50 nM
8. C=CC(=O)Nc1cc(Nc2cc(N3OCC[C@@H]3c3cc(F)cc(-c4cnn(C)c4)c3)ncn2)c(OC)cc1N1CCC(N2CCN(C3CC3)CC2)CC1
< 50 nM

###

System: SK-BR-3 cancer cells
EXPERIMENT_SUMMARY: Inhibitory activity against proliferation of SK-BR-3 cancer cells (CellTiter-Glo)
Type: cell-based
RUN_PARAMETERS: Homo sapiens, SK-BR-3, 120 h, ErbB2-overexpressing SK-BR-3 cells, 120 hours after treatment
# GI50 annotations
EXPERIMENTAL_ENDPOINT: GI50

1) C=CC(=O)Nc1cc(Nc2cc(N3OCC[C@@H]3c3cc(F)cc(-c4cccc(F)c4)c3)ncn2)c(OC)cc1N1CCC(N2CCN(C3CC3)[C@H](C)C2)CC1
500 to 5000 nM
2) C=CC(=O)Nc1cc(Nc2cc(N3OCC[C@@H]3c3cc(F)cc(-c4cccc(F)c4)c3)ncn2)c(OC)cc1N(C)CCN(C)C
< 50 nM
3) C=CC(=O)Nc1cc(Nc2cc(N3OCC[C@@H]3c3cccc(C#Cc4cccc(F)c4)c3)ncn2)c(OC)cc1N1CCN(C)CC1
50 to 500 nM
4) COc1cc(F)c(NC(=O)/C=C/CN(C)C)cc1Nc1cc(N2OCC[C@@H]2c2ccc(F)c(OCc3cccc(F)c3)c2)ncn1
50 to 500 nM
5) C=CC(=O)Nc1cc(Nc2cc(N3OCCC3c3ccc(Cl)c(OCc4cccc(F)c4)c3)ncn2)c(OC)cc1N1CCC(N2CCN(C3CC3)CC2)CC1 (centres unmarked)
< 50 nM
6) C=CC(=O)Nc1cc(Nc2cc(N3OCCC3c3cccc(-c4cc(F)cc(F)c4)c3)ncn2)c(OC)cc1N1CCN(C)CC1 (centres unmarked)
< 50 nM
7) C=CC(=O)Nc1cc(Nc2cc(N3OCC[C@@H]3c3cccc(-c4cccc(F)c4)c3)ncn2)c(OC)cc1N1CC2(CN(C(=O)OC(C)(C)C)C2)C1
50 to 500 nM
8) C=CC(=O)Nc1cc(Nc2cc(N3OCC[C@@H]3c3cc(F)cc(Oc4cccc(F)c4)c3)ncn2)c(OC)cc1N1CCN(C)CC1
50 to 500 nM
9) C=CC(=O)Nc1cc(Nc2cc(N3OCCC3c3cccc(-c4cnc5cccnn45)c3)ncn2)c(OC)cc1N(C)CCN(C)C (centres unmarked)
< 50 nM
10) C=CC(=O)Nc1cc(Nc2cc(N3OCC[C@@H]3c3cc(F)cc(-c4cccc(N(C)C)c4)c3)ncn2)c(OC)cc1N(C)CCN(C)C
< 50 nM
11) C=CC(=O)Nc1cc(Nc2cc(N3OCC[C@@H]3c3ccc(C)c(OCc4cccc(F)c4)c3)ncn2)c(OC)cc1N1CCN(C)CC1
50 to 500 nM
12) C=CC(=O)Nc1cc(Nc2cc(N3OCC[C@@H]3c3cccc(-c4ccc5ncnn5c4)c3)ncn2)c(OC)cc1N1CCN(C)CC1
< 50 nM
13) C=CC(=O)Nc1cc(Nc2cc(N3OCCC3c3cccc(-c4ccc5ncnn5c4)c3)ncn2)c(OC)cc1N(C)CCN(C)C (centres unmarked)
< 50 nM
14) C=CC(=O)Nc1cc(Nc2cc(N3OCCC3c3cccc(-c4cccc(C(F)(F)F)c4)c3)ncn2)c(OC)cc1N1CCN(C)CC1 (centres unmarked)
50 to 500 nM
